Origin of the recorded values: ChEMBL document CHEMBL5518195

test: Stability in human hepatocytes assessed as half life at 1 uM by LC-MS/MS analysis; format: ADME, cell-based, Hepatocyte
Value type: half-life at 1 µM (h)
Hi! Could you send only the number? It should be in h, unit omitted.

Param item = "CC(C)Cc1cc(-c2cccc(C(=O)Cn3ccnc3C(C)(C)C)c2)c(S(=O)(=O)Nc2ncccn2)s1" ; retrieve measured half-life at 1 µM.
1.28

###

Molecular target: Type-2 angiotensin II receptor (Homo sapiens, UniProt P50052)
Sequence (P50052 whole entry): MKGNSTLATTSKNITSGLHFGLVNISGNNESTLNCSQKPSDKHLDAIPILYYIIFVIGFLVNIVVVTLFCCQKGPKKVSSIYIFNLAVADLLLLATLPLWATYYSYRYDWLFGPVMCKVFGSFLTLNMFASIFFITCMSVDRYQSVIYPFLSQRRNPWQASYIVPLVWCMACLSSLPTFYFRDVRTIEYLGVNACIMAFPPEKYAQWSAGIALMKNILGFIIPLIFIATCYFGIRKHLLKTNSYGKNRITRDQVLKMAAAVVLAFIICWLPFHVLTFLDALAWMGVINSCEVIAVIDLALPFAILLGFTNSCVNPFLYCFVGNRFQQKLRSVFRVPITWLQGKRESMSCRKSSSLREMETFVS
Kindly state pKi for each of the entries shown.
Scale explanation: pKi corresponds to minus log10 of a concentration expressed in moles per litre.

Query the reported pKi for Type-2 angiotensin II receptor (Homo sapiens, UniProt P50052); item: "CC(C)Cc1cc(-c2cccc(Cn3ccnc3)c2)c(S(=O)(=O)Nc2nccs2)s1"
6.19

Query the reported pKi for Type-2 angiotensin II receptor (Homo sapiens, UniProt P50052); item: "CC(C)Cc1cc(-c2cccc(C(=O)Cn3ccnc3C(C)(C)C)c2)c(S(=O)(=O)Nc2ncc(Br)cn2)s1"
8.82

Query the reported pKi for Type-2 angiotensin II receptor (Homo sapiens, UniProt P50052); item: "CC(C)Cc1cc(-c2cccc(Cn3ccnc3)c2)c(S(=O)(=O)Nc2nccc(C#N)n2)s1.O=C(O)C(F)(F)F"
7.00

###

Biological target: UniProt P50052
Sequence (P50052 whole entry): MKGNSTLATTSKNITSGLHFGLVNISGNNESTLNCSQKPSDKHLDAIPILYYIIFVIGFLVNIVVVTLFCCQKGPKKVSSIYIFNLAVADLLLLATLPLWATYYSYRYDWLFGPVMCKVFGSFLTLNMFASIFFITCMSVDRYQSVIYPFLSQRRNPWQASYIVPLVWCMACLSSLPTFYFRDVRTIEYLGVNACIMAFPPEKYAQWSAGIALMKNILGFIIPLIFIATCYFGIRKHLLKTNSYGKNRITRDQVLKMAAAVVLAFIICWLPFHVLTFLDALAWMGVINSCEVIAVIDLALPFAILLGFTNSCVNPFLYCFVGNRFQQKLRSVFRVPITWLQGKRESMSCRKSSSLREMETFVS
Value type: Ki (nM)
Hi! Could you send only the number? It should be in nM, unit omitted.

Param item = "CC(C)Cc1cc(-c2cccc(Cn3ccnc3)c2)c(S(=O)(=O)Nc2ncc(Br)cn2)s1" ; retrieve measured Ki.
42

Param item = "CC(C)Cc1cc(-c2cccc(C(=O)Cn3ccnc3C(C)(C)C)c2)c(S(=O)(=O)Nc2ncc(C(F)(F)F)cn2)s1" ; retrieve measured Ki.
2

Param item = "CC(C)Cc1cc(-c2cccc(Cn3ccnc3)c2)c(S(=O)(=O)Nc2nc3ccccc3s2)s1.O=C(O)C(F)(F)F" ; retrieve measured Ki.
800

Param item = "CC(C)Cc1cc(-c2cccc(Cn3ccnc3)c2)c(S(=O)(=O)Nc2nccc(C(F)(F)F)n2)s1.O=C(O)C(F)(F)F" ; retrieve measured Ki.
300

###

assay: Stability in mouse liver microsomes assessed as half life at 1 uM in presence of NADPH by LC-MS/MS analysis; type: ADME, Microsome; details: time 60 min
Kindly state log10 of half-life at 1 µM for each of the entries shown.
Please note: log10 values; quantity half-life at 1 µM; unit min.

Param item = "CC(C)Cc1cc(-c2cccc(C(=O)Cn3ccnc3C(C)(C)C)c2)c(S(=O)(=O)Nc2ncc(C#N)cn2)s1.O=C(O)C(F)(F)F" ; retrieve measured log10 of half-life at 1 µM.
0.36

Param item = "CC(C)Cc1cc(-c2cccc(Cn3ccnc3)c2)c(S(=O)(=O)Nc2nccc(C(F)(F)F)n2)s1.O=C(O)C(F)(F)F" ; retrieve measured log10 of half-life at 1 µM.
1.00

Param item = "CC(C)Cc1cc(-c2cccc(C(=O)Cn3ccnc3C(C)(C)C)c2)c(S(=O)(=O)Nc2ncc(Br)cn2)s1" ; retrieve measured log10 of half-life at 1 µM.
1.04

Param item = "CC(C)Cc1cc(-c2cccc(Cn3ccnc3)c2)c(S(=O)(=O)Nc2ncc(Br)cn2)s1" ; retrieve measured log10 of half-life at 1 µM.
2.20

Param item = "CC(C)Cc1cc(-c2cccc(Cn3ccnc3)c2)c(S(=O)(=O)Nc2nccs2)s1" ; retrieve measured log10 of half-life at 1 µM.
2.32

Param item = "CC(C)Cc1cc(-c2cccc(C(=O)Cn3ccnc3C(C)(C)C)c2)c(S(=O)(=O)Nc2ncccn2)s1" ; retrieve measured log10 of half-life at 1 µM.
1.23

Param item = "Cc1nc(NS(=O)(=O)c2sc(CC(C)C)cc2-c2cccc(Cn3ccnc3)c2)ncc1Cl" ; retrieve measured log10 of half-life at 1 µM.
1.36

Param item = "CC(C)Cc1cc(-c2cccc(C(=O)Cn3ccnc3C(C)(C)C)c2)c(S(=O)(=O)Nc2ccc(C#N)cc2)s1" ; retrieve measured log10 of half-life at 1 µM.
0.36

Param item = "CC(C)Cc1cc(-c2cccc(C(=O)Cn3ccnc3C(C)(C)C)c2)c(S(=O)(=O)Nc2ccc(C(F)(F)F)cn2)s1" ; retrieve measured log10 of half-life at 1 µM.
0.56

Param item = "CC(C)Cc1cc(-c2cccc(C(=O)Cn3ccnc3C(C)(C)C)c2)c(S(=O)(=O)Nc2ncc(F)cn2)s1.O=C(O)C(F)(F)F" ; retrieve measured log10 of half-life at 1 µM.
1.32

Param item = "CC(C)Cc1cc(-c2cccc(Cn3ccnc3)c2)c(S(=O)(=O)Nc2nccc(C#N)n2)s1.O=C(O)C(F)(F)F" ; retrieve measured log10 of half-life at 1 µM.
1.57

Param item = "CC(C)Cc1cc(-c2cccc(C(=O)Cn3ccnc3C(C)(C)C)c2)c(S(=O)(=O)Nc2nccs2)s1" ; retrieve measured log10 of half-life at 1 µM.
0.81

Param item = "CC(C)Cc1cc(-c2cccc(C(=O)Cn3ccnc3C(C)(C)C)c2)c(S(=O)(=O)Nc2ncc(Cl)cn2)s1.O=C(O)C(F)(F)F" ; retrieve measured log10 of half-life at 1 µM.
1.04

Param item = "CC(C)Cc1cc(-c2cccc(Cn3ccnc3)c2)c(S(=O)(=O)Nc2nc3ccccc3s2)s1.O=C(O)C(F)(F)F" ; retrieve measured log10 of half-life at 1 µM.
2.68

Param item = "CC(C)Cc1cc(-c2cccc(Cn3ccnc3)c2)c(S(=O)(=O)Nc2nccc(C(N)=O)n2)s1.O=C(O)C(F)(F)F" ; retrieve measured log10 of half-life at 1 µM.
1.56

Param item = "CC(C)Cc1cc(-c2cccc(C(=O)Cn3ccnc3C(C)(C)C)c2)c(S(=O)(=O)Nc2ncc(C(F)(F)F)cn2)s1" ; retrieve measured log10 of half-life at 1 µM.
1.08

###

test: Stability in human liver microsomes assessed as half life at 1 uM in presence of NADPH by LC-MS/MS analysis; type: ADME, Microsome
half-life at 1 µM vs 5 min: less than gives 1; not less than gives -1.

Lab log: compare recorded half-life at 1 µM with 5 min; is it strictly lower for "CC(C)Cc1cc(-c2cccc(C(=O)Cn3ccnc3C(C)(C)C)c2)c(S(=O)(=O)Nc2nccs2)s1" ?
-1

Lab log: compare recorded half-life at 1 µM with 5 min; is it strictly lower for "CC(C)Cc1cc(-c2cccc(C(=O)Cn3ccnc3C(C)(C)C)c2)c(S(=O)(=O)Nc2ncc(C#N)cn2)s1.O=C(O)C(F)(F)F" ?
1

Lab log: compare recorded half-life at 1 µM with 5 min; is it strictly lower for "CC(C)Cc1cc(-c2cccc(Cn3ccnc3)c2)c(S(=O)(=O)Nc2nccc(C(F)(F)F)n2)s1.O=C(O)C(F)(F)F" ?
-1

Lab log: compare recorded half-life at 1 µM with 5 min; is it strictly lower for "CC(C)Cc1cc(-c2cccc(Cn3ccnc3)c2)c(S(=O)(=O)Nc2nccc(C#N)n2)s1.O=C(O)C(F)(F)F" ?
-1

Lab log: compare recorded half-life at 1 µM with 5 min; is it strictly lower for "CC(C)Cc1cc(-c2cccc(C(=O)Cn3ccnc3C(C)(C)C)c2)c(S(=O)(=O)Nc2ncc(Cl)cn2)s1.O=C(O)C(F)(F)F" ?
-1

Lab log: compare recorded half-life at 1 µM with 5 min; is it strictly lower for "CC(C)Cc1cc(-c2cccc(C(=O)Cn3ccnc3C(C)(C)C)c2)c(S(=O)(=O)Nc2ccc(C(F)(F)F)cn2)s1" ?
1

Lab log: compare recorded half-life at 1 µM with 5 min; is it strictly lower for "CC(C)Cc1cc(-c2cccc(C(=O)Cn3ccnc3C(C)(C)C)c2)c(S(=O)(=O)Nc2ncc(F)cn2)s1.O=C(O)C(F)(F)F" ?
-1

Lab log: compare recorded half-life at 1 µM with 5 min; is it strictly lower for "CC(C)Cc1cc(-c2cccc(C(=O)Cn3ccnc3C(C)(C)C)c2)c(S(=O)(=O)Nc2ncc(C(F)(F)F)cn2)s1" ?
1

Lab log: compare recorded half-life at 1 µM with 5 min; is it strictly lower for "CC(C)Cc1cc(-c2cccc(C(=O)Cn3ccnc3C(C)(C)C)c2)c(S(=O)(=O)Nc2ccc(C#N)cc2)s1" ?
1

Lab log: compare recorded half-life at 1 µM with 5 min; is it strictly lower for "CC(C)Cc1cc(-c2cccc(Cn3ccnc3)c2)c(S(=O)(=O)Nc2ncc(Br)cn2)s1" ?
-1

Lab log: compare recorded half-life at 1 µM with 5 min; is it strictly lower for "Cc1nc(NS(=O)(=O)c2sc(CC(C)C)cc2-c2cccc(Cn3ccnc3)c2)ncc1Cl" ?
-1

Lab log: compare recorded half-life at 1 µM with 5 min; is it strictly lower for "CC(C)Cc1cc(-c2cccc(Cn3ccnc3)c2)c(S(=O)(=O)Nc2nccs2)s1" ?
-1
